Measured IC50, listed per entry.
System: SK-Hep-1 cells
protocol summary: Cell viability assay (Cell Titer-Glo)
Assay type: cell-based
run conditions: Homo sapiens, SK-HEP1, 48 h, 95% confidence interval in square brackets
measured quantity: IC50 (µM)

- compound: "CC(C)=CCC/C(C)=C/CC/C(C)=C/CC/C(C)=C/Cc1c(C)c(OC(=O)CCC(=O)O)c2ccccc2c1OC(=O)CCC(=O)O [MKH-SUC, Menahydroquinone-4 1,4-bis hemisuccinate]"
  units label: "µM"
  numeric value: 78.1
- compound: "CC(C)=CCC/C(C)=C/CC/C(C)=C/CC/C(C)=C/Cc1c(C)c(OC(=O)CN(C)C)c2ccccc2c1OC(=O)CN(C)C"
  units label: "µM"
  numeric value: 71.3

* * *

Measured Km, listed per entry.
protocol summary: Uptake of MKH-ester derivatives in HCC cells (Michaelis-Menten kinetics)
Assay type: in vitro ADME
run conditions: human, PLC/PRF/5 cells (HCC cell line); PLC/PRF/5 cells; Michaelis-Menten fit; 95% confidence interval in square brackets
measured quantity: Km

- molecule: "CC(C)=CCC/C(C)=C/CC/C(C)=C/CC/C(C)=C/Cc1c(C)c(OC(=O)CN(C)C)c2ccccc2c1OC(=O)CN(C)C [MKH-DMG]"
  measured quantity: "Km"
  result: "447 µM"
- molecule: "CC(C)=CCC/C(C)=C/CC/C(C)=C/CC/C(C)=C/Cc1c(C)c(OC(=O)CCC(=O)O)c2ccccc2c1OC(=O)CCC(=O)O [MKH-SUC, Menahydroquinone-4 1,4-bis hemisuccinate]"
  measured quantity: "Km"
  result: "712 µM"
- molecule: "CC(=O)Oc1c(C)c(C/C=C(\\C)CC/C=C(\\C)CC/C=C(\\C)CCC=C(C)C)c(OC(C)=O)c2ccccc12 [MKH-ACT, Menahydroquinone-4 1,4-bis acetate]"
  measured quantity: "Km"
  result: "31.9 µM"

* * *

protocol summary: Hydrolysis of MKH-SUC in isotonic buffer solution (PBS)
Assay type: physicochemical
run conditions: in PBS at 37 °C; read-out: Half-life toward MKH (converted)
Experimental: Next, a time course of MKH delivery with the MKH derivatives, including MK-4, was investigated. The AUC0–24h values for MKO after treatment of MKH-SUC was the highest among the three MKH-derivatives in both HCC cell lines, and the AUC0–24h values for MKH after treatment of MKH-SUC were also the highest (Table 3). […] However, the difference in MKH delivery was not higher than that of the regeneration to MKH by the esterase of HCC (Figure 4 and Table 2). […]

- molecule: "CC(C)=CCC/C(C)=C/CC/C(C)=C/CC/C(C)=C/Cc1c(C)c(OC(=O)CCC(=O)O)c2ccccc2c1OC(=O)CCC(=O)O [MKH-SUC, Menahydroquinone-4 1,4-bis hemisuccinate]"
  half-life: "~25 h"

* * *

Measured Km, listed per entry.
Test system: esterase
protocol summary: Regeneration (hydrolysis) of MKH-ester derivatives to MKH in S9 fractions
Type: in vitro ADME
run conditions: human, S9 fraction of PLC/PRF/5 cells, pH 7.4; S9 of PLC/PRF/5 cells, 37 °C; Michaelis-Menten fit; 95% confidence interval in square brackets

- molecule: "CC(=O)Oc1c(C)c(C/C=C(\\C)CC/C=C(\\C)CC/C=C(\\C)CCC=C(C)C)c(OC(C)=O)c2ccccc12 [MKH-ACT, Menahydroquinone-4 1,4-bis acetate]"
  Km / µM: 1.42
- molecule: "CC(C)=CCC/C(C)=C/CC/C(C)=C/CC/C(C)=C/Cc1c(C)c(OC(=O)CCC(=O)O)c2ccccc2c1OC(=O)CCC(=O)O [MKH-SUC, Menahydroquinone-4 1,4-bis hemisuccinate]"
  Km / µM: 0.399
- molecule: "CC(C)=CCC/C(C)=C/CC/C(C)=C/CC/C(C)=C/Cc1c(C)c(OC(=O)CN(C)C)c2ccccc2c1OC(=O)CN(C)C"
  Km / µM: 13.6
